Kindly state Kd for each of the entries shown.
Target: T1, His-tagged human TREM2 ECD (human, UniProt Q9NZC2 19-172)
T1 construct: Biacore and HDX say only recombinant human TREM2 (ECD); also called recombinant human TREM2; hTREM2
T1 sequence: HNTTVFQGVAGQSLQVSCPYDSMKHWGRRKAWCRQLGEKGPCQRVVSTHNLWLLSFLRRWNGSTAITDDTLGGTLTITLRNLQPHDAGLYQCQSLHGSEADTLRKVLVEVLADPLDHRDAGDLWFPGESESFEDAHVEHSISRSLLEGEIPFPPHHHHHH
Assay: SPR (Biacore)
One number for each entry, in nM.

Field: example entries. Status: answers known.
Reference antibody #3 (antibody, V domains shown) VH: QVQLVQSGAEVKKPGASVKVSCKASGYAFSSQWMNWVRQAPGQRLEWIGRIYPGGGDTNYAGKFQGRVTITADTSASTAYMELSSLRSEDTAVYYCARLLRNQPGESYAMDYWGQGTLVTVSS VL: DVVMTQSPDSLAVSLGERATINCRSSQSLVHSNRYTYLHWYQQKPGQSPKLLIYKVSNRFSGVPDRFSGSGSGTDFTLKISRVEAEDVGVYYCSQSTRVPYTFGQGTKLEIK ... 8.7
CL0020188-7 (antibody, V domains shown, Humanized variant of CL0020188 (hVH NA/graft, hVL TG/graft); also called Clone CL0020188-7) VH: EVQLVESGGGLVQPGGSLRLSCAASGFTFTDFYMSWVRQAPGKGLEWVSVIRNKANAYTAGYNPSVKGRFTISRDNSKNTLYLQMNSLRAEDTAVYYCARLTYGFDYWGQGTLVTVSS VL: DIVMTQTPLSLPVTPGEPASISCQSSKSLLHSTGKTYLNWYLQKPGQSPQLLIYWMSTRASGVPDRFSGSGSGTDFTLKISRVEAEDVGVYYCQQFLEYPFTFGQGTKVEIK ... 3.3
CL0020123-5 (antibody, V domains shown, Humanized variant of CL0020123 (hVH QGES/2 m, Vk graft); also called Clone CL0020123-5) VH: QVQLVQSGAEVKKPGASVKVSCKASGFSIEDFYIHWVRQAPGQGLEWMGWIDPEQGESKYAPKFQGRATITADTSTSTAYMELSSLRSEDTAVYYCHADHGNYGSTMDYWGQGTLVTVSS VL: DIQMTQSPSSLSASVGDRVTITCHASQHINVWLSWYQQKPGKAPKLLIYKASNLHTGVPSRFSGSGSGTDFTLTISSLQPEDFATYYCQQGQTYPRTFGQGTKVEIK ... 0.63
CL0020123-7 (antibody, V domains shown, Humanized variant of CL0020123 (hVH NGES/1 m, Vk graft); also called Clone CL0020123-7) VH: QVQLVQSGAEVKKPGASVKVSCKASGFSIEDFYIHWVRQAPGQGLEWMGWIDPENGESKYAPKFQGRVTITADTSTSTAYMELSSLRSEDTAVYYCHADHGNYGSTMDYWGQGTLVTVSS VL: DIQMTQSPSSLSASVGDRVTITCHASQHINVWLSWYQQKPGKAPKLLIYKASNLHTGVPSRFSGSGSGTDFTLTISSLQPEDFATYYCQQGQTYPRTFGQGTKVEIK ... 0.08

Below are 3 binders. Give each one its Kd.
1. CL0020188-4 (antibody, V domains shown, Humanized variant of CL0020188 (hVH NG/3 m, hVL TG/graft); also called Clone CL0020188-4) VH: EVQLVESGGGLVQPGGSLRLSCAGSGFTFTDFYMSWVRQAPGKGPEWLSVIRNKANGYTAGYNPSVKGRFTISRDNSKNTLYLQMNSLRAEDTAVYYCARLTYGFDYWGQGTLVTVSS VL: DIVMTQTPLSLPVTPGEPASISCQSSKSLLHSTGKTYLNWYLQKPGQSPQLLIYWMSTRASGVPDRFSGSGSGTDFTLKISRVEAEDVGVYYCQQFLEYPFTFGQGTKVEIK
2. Reference antibody #2 (antibody, V domains shown) VH: EVQLVQSGAEVKKPGESLKISCKGSGYSFTSYWIAWVRQMPGKGLEWMGIIYPGDSDTRYSPSFQGQVTISADKSISTAYLQWSSLKASDTAMYFCARQRTFYYDSSDYFDYWGQGTLVTVSS VL: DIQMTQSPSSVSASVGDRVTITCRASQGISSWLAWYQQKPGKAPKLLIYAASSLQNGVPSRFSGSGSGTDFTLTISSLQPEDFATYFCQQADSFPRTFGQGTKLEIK
3. Reference antibody #1 (antibody, V domains shown) VH: EVQLVQSGAEVKKPGESLKISCKGSGHSFTNYWIAWVRQMPGKGLEWMGIIYPGDSDTRYSPSFQGQVTISADKSISTAYLQWSSLKASDTAVYFCARQRTFYYDSSGYFDYWGQGTLVTVSS VL: DIQMTQSPSSVSASVGDRVTITCRASQGISNWLAWYQQKPGKAPKLLIYAASSLQVGVPLRFSGSGSGTDFTLTISSLQPEDFATYYCQQADSFPRNFGQGTKLEIK

result:
1.4
4.3
5.9
